# Test system: HEK-293T
# experimental-details: Multiplex assay against HEK293T
# Format: toxicity, cell-based
# condition-label: human, 48 h, 10 µM, compound concentration 10 uM, replicate 2
measurement-kind: Population Mitochondria Different-Phenotype (%)
Give bare numbers, in %.

Provide each entry's Population Mitochondria Different-Phenotype (%) from the list below.
1. CCc1nn(CCCN2CCN(c3cccc(Cl)c3)CC2)c(=O)n1CCOc1ccccc1.Cl [NEFAZODONE HYDROCHLORIDE]
2. CC(C)(C)NC[C@H](O)COc1nsnc1N1CCOCC1 [TIMOLOL]
3. O=c1cc(N2CCOCC2)oc2c(-c3cccc4c3sc3ccccc34)cccc12
4. CCOC(=O)Nc1cc(-c2ccc(C)c(NS(C)(=O)=O)c2)nn2c(C)nnc12
5. CC(C)c1noc(N2CCC(COc3ccc(-c4ccc(S(C)(=O)=O)cc4)nc3)CC2)n1 [GSK-1292263]

Ans:
[100, 4, 94, 0, 12]

====

# Test system: HEK-293T
# experimental-details: Multiplex assay against HEK293T
# Format: toxicity, cell-based
# condition-label: human, 24 h, 1 µM, compound concentration 1 uM, replicate 2
measurement-kind: Population Hoechst High Intensity Objects (%)
Answers are plain numbers, in %.

Check out these entries, answers already filled in.
molecule: Cc1cccc(CN2CCN(C(c3ccccc3)c3ccc(Cl)cc3)CC2)c1.Cl.Cl (stereo not given)
reported-result: 4

molecule: CCCSc1nc(N[C@@H]2C[C@H]2c2ccc(F)c(F)c2)c2nnn([C@@H]3C[C@H](OCCO)[C@@H](O)[C@H]3O)c2n1 [TICAGRELOR]
reported-result: 3

molecule: CC(C)OC(=O)N1CCC(Oc2ncnc3c2cnn3-c2ccc(S(C)(=O)=O)cc2F)CC1
reported-result: 3

molecule: Cc1c[nH]c2nccc(Oc3c(F)cc(Nc4cc(Cl)nc(N)n4)cc3F)c12 [BAY-549]
reported-result: 3

molecule: COc1cc(Nc2nccc(-c3cnn4nc(OC)ccc34)n2)cc(C(F)(F)F)c1
reported-result: 3

molecule: C=CC(=O)Nc1cccc(Oc2nc(Nc3ccc(N4CCN(C)CC4)cc3OC)ncc2Cl)c1
reported-result: 7

Provide each entry's Population Hoechst High Intensity Objects (%) from the list below.
1. CC(C)NC(=O)N1CC[C@H](NC2=Nc3cc(F)ccc3N(CC(F)F)c3ccc(Cl)cc32)C1
2. Cc1ccc2c(c1)c1c(n2CCc2ccc(C)nc2)CCN(C)C1 [LATREPIRDINE]
3. COc1ccc(-c2ccc3ncc4c(c3c2)n(-c2ccc(N3CCNCC3)c(C(F)(F)F)c2)c(=O)n4C)cn1.O=C(O)/C=C\C(=O)O [BGT-226]
4. CN1CCN(Cc2ccc(Nc3ncc(Cl)c(Nc4ccccc4S(=O)(=O)N(C)C)n3)cc2)CC1 [DUBERMATINIB]

Ans:
3
4
8
3

Provide each entry's Population Hoechst High Intensity Objects (%) from the list below.
1. CC1=C(C(=O)Nc2cc3cn[nH]c3cc2F)C(c2ccc(C(F)(F)F)cc2)CC(=O)N1 (stereo not given)
2. CNC(=O)Nc1ccc(-c2nc(N3CC4CCC(C3)O4)c3cnn(C4CCC5(CC4)OCCO5)c3n2)cc1

Ans:
1: 1; 2: 10

Provide each entry's Population Hoechst High Intensity Objects (%) from the list below.
1. CCc1nn(CCCN2CCN(c3cccc(Cl)c3)CC2)c(=O)n1CCOc1ccccc1.Cl [NEFAZODONE HYDROCHLORIDE]
2. CCc1ccc(OCc2ccccc2C(=O)Nc2ccc3nc(C)cc(N)c3c2)cc1.Cl
3. C=CC(=O)Nc1ccc2[nH]c(=O)n(C3CCN(Cc4ccc(-c5nc6cc[nH]c(=O)c6cc5-c5ccccc5)cc4)CC3)c2c1 [Borussertib]

Ans:
1. 4
2. 15
3. 4

====

# Test system: HEK-293T
# experimental-details: Multiplex assay against HEK293T
# Assay type: toxicity, cell-based
# condition-label: human, 12 h, 1 µM, compound concentration 1 uM, replicate 2
measurement-kind: Population Hoechst High Intensity Objects (%)
Numbers only, in %.

Check out these entries, answers already filled in.
compound: Cl.O=C(O)c1cc(-c2ccc(C3CCNCC3)cc2)c2ccc(-c3ccc(C(F)(F)F)cc3)cc2c1
reported-result: 6
--
compound: CNC(=O)c1ccc(Nc2ncc(C(F)(F)F)c(NCc3nccnc3N(C)S(C)(=O)=O)n2)cc1
reported-result: 3

Provide each entry's Population Hoechst High Intensity Objects (%) from the list below.
1. Cc1ccc2c(c1)c1c(n2CCc2ccc(C)nc2)CCN(C)C1 [LATREPIRDINE]
2. CC(C)NC(=O)N1CC[C@H](NC2=Nc3cc(F)ccc3N(CC(F)F)c3ccc(Cl)cc32)C1
3. O=c1[nH]c2ccccc2n1C1CCN(Cc2ccc(-c3[nH]c4cc5ncnc5cc4nc3-c3ccccc3)cc2)CC1
4. CCOC(=O)Nc1cc(-c2ccc(C)c(NS(C)(=O)=O)c2)nn2c(C)nnc12
5. COc1cc2ncn(-c3cc(OCc4ccccc4C(F)(F)F)c(C(N)=O)s3)c2cc1OC [GW843682X]
6. C=CC(=O)Nc1cccc(Oc2nc(Nc3ccc(N4CCN(C)CC4)cc3OC)ncc2Cl)c1

Ans:
[2, 3, 2, 2, 2, 7]

====

# Tested on: U2OS
# experimental-details: Incucyte cell viability with U2OS; note: filed as whole numbers so only -1 and 0 and 1 occur
# Format: toxicity, cell-based
# condition-label: human, 18 h, 10 µM, compound concentration 10 uM, replicate number 1, timepoint 18 hours
I'd be grateful if you could share measured Growth Rate for these entries.
Numbers only.

Check out these entries, answers already filled in.
compound: O=C(O)C1CN(Cc2ccc(OCc3ccc(Cl)c(Cl)c3)cc2)C1
Growth Rate: 0

compound: O=C(Cc1ccccc1)Nc1nc2ccc(Cl)cc2c2nc(-c3ccco3)nn12
Growth Rate: 1

compound: Cc1cccc(CN2CCN(C(c3ccccc3)c3ccc(Cl)cc3)CC2)c1.Cl.Cl (stereo not drawn)
Growth Rate: 1

Provide each entry's Growth Rate from the list below.
1. CN(c1ccccc1CNc1nc(Nc2ccc3c(c2)CC(=O)N3)ncc1C(F)(F)F)S(C)(=O)=O
2. COc1ccc(-c2ccc3ncc4c(c3c2)n(-c2ccc(N3CCNCC3)c(C(F)(F)F)c2)c(=O)n4C)cn1.O=C(O)/C=C\C(=O)O [BGT-226]

Ans:
[0, 0]

Provide each entry's Growth Rate from the list below.
1. CCc1ccc(OCc2ccccc2C(=O)Nc2ccc3nc(C)cc(N)c3c2)cc1.Cl
2. Cl.Cl.Cl.c1ccc(N2CCN(Cc3nc4ccccc4[nH]3)CC2)nc1
3. C[C@H](NC(=O)c1cnc2n1[C@](C)(Cc1ccc(C#N)cc1)C(=O)N2c1cc(Cl)c(F)c(Cl)c1)C(=O)NC1(c2ccccn2)CC1 [BI 1950]
4. CC(C)OC(=O)N1CCC(Oc2ncnc3c2cnn3-c2ccc(S(C)(=O)=O)cc2F)CC1

Ans:
1: 0; 2: 1; 3: 1; 4: 1

Provide each entry's Growth Rate from the list below.
1. C#Cc1cccc(Nc2ncnc3cc(OCCOC)c(OCCOC)cc23)c1 [ERLOTINIB]
2. Nc1ncnc2c1ccn2[C@@H]1O[C@H]([C@H](O)c2ccccc2)[C@@H](O)[C@H]1O
3. CSc1cccnc1N1CCN(Cc2nc3ccccc3[nH]2)CC1 [A-769]
4. CN1CCN(Cc2cc(NC(=O)c3ccc4c(c3)CN(c3ccccc3)CC4)cc(C(F)(F)F)c2)CC1
5. CC1=C(C(=O)Nc2cc3cn[nH]c3cc2F)C(c2ccc(C(F)(F)F)cc2)CC(=O)N1 (stereo not drawn)
6. COCCOc1nc(-c2ccc(Cl)nc2)nc2c1CN(C(=O)c1ncn3ccccc13)CC2 [THPP-1]

Ans:
1. 0
2. 0
3. 0
4. 0
5. 1
6. 0

Provide each entry's Growth Rate from the list below.
1. O=C(O)C1CN(Cc2ccc(-c3nc4cc(Cc5ccccc5F)ccc4s3)c(F)c2)C1
2. O=C(O)Cn1c(C(=O)Nc2nc(-c3ccccc3Cl)cs2)cc2ccccc21
3. CC#CC(=O)N1CCC[C@H]1c1nc(-c2ccc(C(=O)Nc3ccccn3)cc2)c2c(N)nccn12 [ACALABRUTINIB]

Ans:
0
0
0

====

# System: HEK-293T
# experimental-details: Multiplex assay against HEK293T
# Type: toxicity, cell-based
# condition-label: human, 12 h, 10 µM, compound concentration 10 uM, replicate 2
I'd be grateful if you could share measured Population Healthy Nuclei (%) for these entries.
One number for each entry, in %.

Check out these entries, answers already filled in.
structure-smiles-string: CC(C)OC(=O)N1CCC(Oc2ncnc3c2cnn3-c2ccc(S(C)(=O)=O)cc2F)CC1
value-units: %
Population Healthy Nuclei (%): 45
//
structure-smiles-string: CCCSc1nc(N[C@@H]2C[C@H]2c2ccc(F)c(F)c2)c2nnn([C@@H]3C[C@H](OCCO)[C@@H](O)[C@H]3O)c2n1
value-units: %
Population Healthy Nuclei (%): 26
//
structure-smiles-string: CC(C)c1noc(N2CCC(COc3ccc(-c4ccc(S(C)(=O)=O)cc4)nc3)CC2)n1
value-units: %
Population Healthy Nuclei (%): 20
//
structure-smiles-string: CNC(=O)Nc1ccc(-c2nc(N3CC4CCC(C3)O4)c3cnn(C4CCC5(CC4)OCCO5)c3n2)cc1
value-units: %
Population Healthy Nuclei (%): 8
//
structure-smiles-string: C=CC(=O)Nc1ccc2[nH]c(=O)n(C3CCN(Cc4ccc(-c5nc6cc[nH]c(=O)c6cc5-c5ccccc5)cc4)CC3)c2c1
value-units: %
Population Healthy Nuclei (%): 84

Provide each entry's Population Healthy Nuclei (%) from the list below.
1. CC(C)Oc1ccccc1C(=O)Nc1ccccc1C(=O)Nc1cccc(S(=O)(=O)C(F)(F)F)c1
2. O=c1[nH]c2ccccc2n1C1CCN(Cc2ccc(-c3[nH]c4cc5ncnc5cc4nc3-c3ccccc3)cc2)CC1
3. C[C@]12CC[C@@H]3c4ccc(O)cc4CC[C@H]3[C@@H]1CC[C@@H]2O

Ans:
21
71
36

Cited source: ChEMBL document CHEMBL4689842
